Field: PBM binding z-score. Provide a value for each of the sequences that follow.
- System: RARg homodimer (NR concentration 270 nM)
- Test Name: PBM binding z-score (relative to random genomic background probes); higher = stronger binding; sequences stand for … in GC…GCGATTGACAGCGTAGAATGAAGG

Study these solved cases before continuing.
- Chain Sequence: "CCTCGGAGGACAACAGGGGGTCAGAGCTGCCAGA"
  Measured: 3.49
- Chain Sequence: "CCGACTGGGGCAAGGTTACGATAACGCACAGCCA"
  Measured: 1.56
- Chain Sequence: "CGACCAAGGTCAGAGAGGTCAGTGAATGCCGAGT"
  Measured: 7.04
- Chain Sequence: "GCGACTGGGGCAAAGCGGGTTACCATAAGGTTGG"
  Measured: 0.469
- Chain Sequence: "TCATATAGGTAAAAGCTGAAAGTCGGTGTGGTAA"
  Measured: -0.318

// each listed sequence needs a value for PBM binding z-score
1. TGAATGAGTTTAAAGATCAGGGAACGTGGCGTCG
2. TAGCCTAGGTCATGGGGCCAGTATAGTACGCATC
3. CCTTACGGGTGACGAGGTTATAGCACGACGAGCG
4. TCTTGTGGATCAACAGGAGGTTAAGAAAGATCGA

Reply:
0.222
4.7
0.849
0.266

// each listed sequence needs a value for PBM binding z-score
1. AGAATGAGGTTACCAAAGATAAGGGAAACGCTTG
2. CCTAGTTGGTCAGGAGTTCACACACCGGATATGA
3. AATACAGCGTCACTAGGCCAGAGTAGGTACGAAT
4. CGTCCTAGGTCAAGGTCAGTGAAAGAGACTCGAA
5. TCTATGAGTTGATTAGGGCAACCGAAACAGCGGA
6. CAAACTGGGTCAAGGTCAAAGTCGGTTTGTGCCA
7. CCTCAGAGGACAACAGGAGGTCAGAGCTGCCAGA

Reply:
1: 1.54; 2: 2.47; 3: 0.173; 4: 6.43; 5: 0.536; 6: 6.18; 7: 4.83

// each listed sequence needs a value for PBM binding z-score
1. AATACAGGGTCATCGTAGGCCAGAATACGCACAG
2. ATCTCTAGCTAAAAGTTCAGTGAATCCCGAGGAT
3. CGAACTAGGTCAAGAGGTCAAAGTCCGCTTCCCG
4. TAGCCTAGCTCATGCGGGCCAGTATAGTGTCGGC
5. TCTGCGAGGTCAGTTGGTCAGCTAACGAGCTGCC
6. CCGACTGGGGCAGACAGGTTACCATACCATCCGG

Reply:
[5.13, 1.84, 7.63, -0.912, 5.42, 0.456]

* * *

- System: FXR:RXRa (NR concentration 270 nM, RXRa partner concentration 90 nM)
- Test Name: PBM binding z-score (relative to random genomic background probes); higher = stronger binding; sequences stand for … in GC…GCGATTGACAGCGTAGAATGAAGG
Measured Quantity: PBM binding z-score

Study these solved cases before continuing.
- Chain Sequence: "GCTTGTAGATCTAGGTTAAGAAAGACTAAGCTAA"
  Measured: -0.373
- Chain Sequence: "CCGAGTAAGTTATGGGGCATTCAGGCAACGGTGA"
  Measured: -0.323
- Chain Sequence: "GCTAGCAGGCTATTTGGGTCACTCAATGACGGGC"
  Measured: 0.127
- Chain Sequence: "CTACCAAGGTGATCAAGGTCGTTGATTACTATTC"
  Measured: 0.873
- Chain Sequence: "TCTTGTAGATCAATAGAGGTTAAGACAGTGCGCT"
  Measured: 0.684

// each listed sequence needs a value for PBM binding z-score
1. CTAGAAAGGTCGGTTGAGGTGAGTATACGGATAA
2. CCTACTGGGCCAACGGTCATTGATTCCAATGCTC
3. CCTGCTAGGTCATGGTCACCTAATCTACAGTATG
4. ACTAGTTGGTCAGCTGAGGTCCCACACAATTCGG
5. ATCTCTAGGTACCAAGTTCAGTGAAAGAGAGGAC
6. ACAGATAGGTGATGAAGGTAACTCAGGCTATCAT
7. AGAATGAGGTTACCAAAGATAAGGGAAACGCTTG

Reply:
[3.11, 0.0438, 3.67, 0.639, 0.701, -0.192, 1.56]

// each listed sequence needs a value for PBM binding z-score
1. AGAACGAGGGCACGCTGAGTTGATAACAGAGTAG
2. AGAGCGAGGGCAATGAGTTGATAGCACGGGTGGC
3. GCTTGTAGATCAAGGTTAAGAACGACTAAGCTAA
4. CAAACTAGGTCACGGTCAAAGTCGGTTTGTGCCA
5. CGTCCAAGGTCAGTGCTAGGTCAGTGAAAGCATT

Reply:
[0.997, -0.116, 0.0945, 5.44, 4.03]
